conditions: in isopropanol, 333.15 K
Property: solubility (mole fraction)

What the record says about `O=c1[nH]c2ccccc2n1CCCN1CCC(n2c(=O)[nH]c3cc(Cl)ccc32)CC1` : solubility (mole fraction) is 8.99e-05

====

conditions: in isopropanol, 323.15 K
Property: solubility (mole fraction)
Form rule: numeric answer, no unit written next to it.

What the record says about `O=c1[nH]c2ccccc2n1CCCN1CCC(n2c(=O)[nH]c3cc(Cl)ccc32)CC1` : solubility (mole fraction) is 6.48e-05

====

conditions: in isopropanol, 298.15 K
Property: solubility (mole fraction)
Form rule: numeric answer, no unit written next to it.

What the record says about `O=c1[nH]c2ccccc2n1CCCN1CCC(n2c(=O)[nH]c3cc(Cl)ccc32)CC1` : solubility (mole fraction) is 2.29e-05

====

details: in DMF, 328.15 K
Property: solubility (mole fraction)

What the record says about `O=c1[nH]c2ccccc2n1CCCN1CCC(n2c(=O)[nH]c3cc(Cl)ccc32)CC1` : solubility (mole fraction) is 0.000791

====

details: in DMSO, 328.15 K
Property: solubility (mole fraction)
Form rule: numeric answer, no unit written next to it.

What the record says about `O=c1[nH]c2ccccc2n1CCCN1CCC(n2c(=O)[nH]c3cc(Cl)ccc32)CC1` : solubility (mole fraction) is 0.00171

====

conditions: in DMF, 323.15 K
Property: solubility (mole fraction)
Form rule: numeric answer, no unit written next to it.

What the record says about `O=c1[nH]c2ccccc2n1CCCN1CCC(n2c(=O)[nH]c3cc(Cl)ccc32)CC1` : solubility (mole fraction) is 0.000679

====

conditions: in water, 328.15 K
Property: solubility (mole fraction)
Form rule: numeric answer, no unit written next to it.

What the record says about `O=c1[nH]c2ccccc2n1CCCN1CCC(n2c(=O)[nH]c3cc(Cl)ccc32)CC1` : solubility (mole fraction) is 7.73e-07

====

settings: in isopropanol, 293.15 K
Property: solubility (mole fraction)

What the record says about `O=c1[nH]c2ccccc2n1CCCN1CCC(n2c(=O)[nH]c3cc(Cl)ccc32)CC1` : solubility (mole fraction) is 1.85e-05

====

settings: in DMSO, 323.15 K
Property: solubility (mole fraction)
Form rule: numeric answer, no unit written next to it.

What the record says about `O=c1[nH]c2ccccc2n1CCCN1CCC(n2c(=O)[nH]c3cc(Cl)ccc32)CC1` : solubility (mole fraction) is 0.00142

====

details: in DMSO, 333.15 K
Property: solubility (mole fraction)

What the record says about `O=c1[nH]c2ccccc2n1CCCN1CCC(n2c(=O)[nH]c3cc(Cl)ccc32)CC1` : solubility (mole fraction) is 0.00209

# credit: BigSolDB 2.1
